Target: Cytochrome P450 3A4 (Homo sapiens, UniProt P08684)
Sequence (P08684 whole entry): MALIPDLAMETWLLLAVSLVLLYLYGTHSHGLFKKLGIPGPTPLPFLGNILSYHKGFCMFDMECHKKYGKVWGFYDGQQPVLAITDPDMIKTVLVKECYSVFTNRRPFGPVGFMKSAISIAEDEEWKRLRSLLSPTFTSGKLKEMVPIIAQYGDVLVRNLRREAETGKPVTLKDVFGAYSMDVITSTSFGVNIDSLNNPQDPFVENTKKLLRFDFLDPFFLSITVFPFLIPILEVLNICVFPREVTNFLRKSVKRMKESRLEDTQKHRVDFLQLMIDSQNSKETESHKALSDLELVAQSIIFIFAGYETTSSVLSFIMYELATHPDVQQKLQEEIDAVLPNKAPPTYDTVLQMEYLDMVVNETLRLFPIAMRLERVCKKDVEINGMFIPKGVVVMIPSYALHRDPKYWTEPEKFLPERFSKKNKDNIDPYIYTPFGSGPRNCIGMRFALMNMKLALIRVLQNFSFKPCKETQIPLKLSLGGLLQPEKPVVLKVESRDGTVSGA
Experiment: Inhibition of CYP3A4 in human liver microsomes after 30 secs by LC/MS/MS analysis
Assay type: ADME
pIC50: −log10 of the molar value.
Value Type: pIC50

[[record]]
smiles_representation = "O=S(=O)(CC[C@@H]1OCC[C@@]2(S(=O)(=O)c3ccc(Cl)cc3)c3c(F)ccc(F)c3OC[C@@H]12)[C@@H]1CCNC1"
reading = 5.21


[in] Would you kindly share the measured pIC50 for CN(C)CCS(=O)(=O)CC[C@@H]1OCC[C@@]2(S(=O)(=O)c3ccc(Cl)cc3)c3c(F)ccc(F)c3OC[C@@H]12 ?
[out] < 4.70

[in] Item: CNC(C)(C)CCS(=O)(=O)CC[C@@H]1OCC[C@@]2(S(=O)(=O)c3ccc(Cl)cc3)c3c(F)ccc(F)c3OC[C@@H]12
[out] < 4.70

[in] Item: CNCCS(=O)(=O)CC[C@@H]1OCC[C@@]2(S(=O)(=O)c3ccc(Cl)cc3)c3c(F)ccc(F)c3OC[C@@H]12
[out] < 4.70

[in] Item: O=S(=O)(CC[C@@H]1OCC[C@@]2(S(=O)(=O)c3ccc(Cl)cc3)c3c(F)ccc(F)c3OC[C@@H]12)CCN1CCNCC1
[out] < 4.70

[in] Item: O=S(=O)(CC[C@@H]1OCC[C@@]2(S(=O)(=O)c3ccc(Cl)cc3)c3c(F)ccc(F)c3OC[C@@H]12)[C@H]1CCNC1
[out] 5.70
